Provenance of the data: patent US12187709B2

Consider the following IC50 values measured on c-Cbl (Homo sapiens (Human)).
Sequence (P22681 47-435): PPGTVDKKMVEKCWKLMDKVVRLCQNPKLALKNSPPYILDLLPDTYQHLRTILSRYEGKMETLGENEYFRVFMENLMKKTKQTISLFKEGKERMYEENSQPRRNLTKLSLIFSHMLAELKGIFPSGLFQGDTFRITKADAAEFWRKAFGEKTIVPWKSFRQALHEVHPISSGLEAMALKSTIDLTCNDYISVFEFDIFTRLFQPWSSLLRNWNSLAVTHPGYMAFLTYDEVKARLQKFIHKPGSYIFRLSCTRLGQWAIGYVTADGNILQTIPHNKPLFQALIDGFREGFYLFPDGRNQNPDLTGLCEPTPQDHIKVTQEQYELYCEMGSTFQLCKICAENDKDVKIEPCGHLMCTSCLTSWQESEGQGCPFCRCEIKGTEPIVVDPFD

# compound, unit-label, IC50
measured = [
    ("Cn1cnnc1[C@@H](CC1CCCC1)c1cccc(N2Cc3c(cc(CNC4(C)CCC4)cc3C(F)(F)F)C2=O)c1 [Compound 248]", "nM", 2100),
    ("Cn1cnnc1[C@@H](CC1CCOCC1)c1cccc(N2Cc3c(cc(CNC4(C)CCC4)cc3C(F)(F)F)C2=O)c1 [Compound 253]", "nM", 140),
    ("CO[C@H]1C[C@](c2cccc(N3Cc4c(cc([C@H](C)NC5(C)CCC5)cc4C(F)(F)F)C3=O)c2)(c2nncn2C)C1 (single isomer, unassigned) [Compound 185]", "nM", 150),
]
